tested on: MAP3K2; conditions: concentration: 1 μM, replicates: in singlicate; n = 1;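 note: KINOMEscan kinase panel screen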
measured.property: %Inh (%)
Lab book: enter the figure in %, no units written.

{"given.smiles": "Cc1ccccc1CC(=O)N1CCc2cc(-c3cn(C)c4ncnc(N)c34)ccc21", "assayed.system": "MAP3K2", "measured.property": "%Inh", "endpoint.result": 88}

Param item = COC(=O)Nc1nc2ccc(Oc3ccc(NC(=O)Nc4cc(C(F)(F)F)ccc4F)cc3)cc2[nH]1.Cl ; retrieve measured %Inh.
0

Given the compound Cl.N#CCc1ccc(Nc2nccc(Nc3ccc(Oc4ccccc4)cc3)n2)cc1 , what is its reported %Inh?
0

// lookup %Inh for Nc1ncnc2scc(-c3ccc(NC(=O)Cc4cc(F)ccc4F)cc3)c12.O=C(O)C(F)(F)F
82

Field request: %Inh | item: CN(c1ccc(F)c(NC(=O)c2cccc(OC(C)(C)C#N)c2Cl)c1)c1ccc2nc(NC(=O)C3CC3)sc2n1
0

Which measured %Inh value corresponds to Cc1cccc(Nc2nc(NCCN)ncc2C(N)=O)c1 ?
62

Reported %Inh for N#CC1(c2cccc(C(=O)Nc3cccc(Oc4ccc5nc(NC(=O)C6CC6)sc5n4)c3)c2)CC1 : what is it?
22

====

tested on: PLK2; conditions: concentration: 1 μM, replicates: in singlicate; n = 1
This section presents compounds with their documented %Inh values.
Report only the number, with the unit % understood.

Consider the reported %Inh for these compounds:
{"compound": "Cl.Cl.NC(CNC(=O)c1cc(Br)c(-c2ccnc3[nH]ccc23)s1)c1ccccc1 (centres unmarked)", "assayed.system": "PLK2", "%Inh, %": 74}
{"compound": "Nc1ncnc2scc(-c3ccc(NC(=O)Cc4cc(F)ccc4F)cc3)c12.O=C(O)C(F)(F)F", "assayed.system": "PLK2", "%Inh, %": 66}
{"compound": "COc1ccc(NC(=O)c2ccoc2)cc1-c1ccc(C(=O)NCC2CC2)cc1", "assayed.system": "PLK2", "%Inh, %": 34}
{"compound": "CCOc1nccc(-c2c(-c3ccc(F)cc3)ncn2C2CCNCC2)n1", "assayed.system": "PLK2", "%Inh, %": 24}
{"compound": "COc1cccc(CC(=O)N2CCc3cc(-c4cn(C)c5ncnc(N)c45)ccc32)c1", "assayed.system": "PLK2", "%Inh, %": 0}

So what's the measured %Inh for this one? O=C(Nc1n[nH]c2nc(-c3ccccc3)ccc12)C1CC1
0

Please report the recorded %Inh for CSc1ccc(NC2=C(c3ccc(Cl)cc3)C(=O)NC2=O)cc1 .
6

If you can, please state the reported %Inh value of CN(c1ccc(F)c(NC(=O)c2cccc(OC(C)(C)C#N)c2Cl)c1)c1ccc2nc(NC(=O)C3CC3)sc2n1 .
0

# lookup: %Inh of CN(C)CCOc1ccc(-c2cc(-c3ccc(Cl)c(O)c3)c(-c3ccncc3)[nH]2)cc1.Cl.Cl
4

Give its %Inh value. Item: Cc1ccc(NC(=O)c2ccnc(N3CCCCC3)c2)cc1-c1ccc(C(=O)NCC2CC2)cc1
0

Which value of %Inh has been reported for Fc1cc(Cl)ccc1Nc1ccnc2cc(-c3ccc(CN4CCSCC4)o3)ccc12 in the records?
0

I am curious: what %Inh value has been reported for COc1ccc(C2=C(Nc3cccc(O)c3)C(=O)NC2=O)cc1 ?
0

What does the record list as %Inh for Cc1cccc(Nc2nc(NCCN)ncc2C(N)=O)c1 ?
0
